Origin of values: patent US11306079B2

Reported IC50 is given for each of the following molecules.
molecular target: PI3Kδ (p110δ/p85α) Recombinant Human Protein (Homo sapiens (Human), UniProt O00329); experiment: PI3Kδ Scintillation Proximity Assay; conditions: 20 μM PIP2, 2 μM ATP, 3.4 nM PI3Kδ, 120 min, room temperature
Sequence (O00329 whole entry): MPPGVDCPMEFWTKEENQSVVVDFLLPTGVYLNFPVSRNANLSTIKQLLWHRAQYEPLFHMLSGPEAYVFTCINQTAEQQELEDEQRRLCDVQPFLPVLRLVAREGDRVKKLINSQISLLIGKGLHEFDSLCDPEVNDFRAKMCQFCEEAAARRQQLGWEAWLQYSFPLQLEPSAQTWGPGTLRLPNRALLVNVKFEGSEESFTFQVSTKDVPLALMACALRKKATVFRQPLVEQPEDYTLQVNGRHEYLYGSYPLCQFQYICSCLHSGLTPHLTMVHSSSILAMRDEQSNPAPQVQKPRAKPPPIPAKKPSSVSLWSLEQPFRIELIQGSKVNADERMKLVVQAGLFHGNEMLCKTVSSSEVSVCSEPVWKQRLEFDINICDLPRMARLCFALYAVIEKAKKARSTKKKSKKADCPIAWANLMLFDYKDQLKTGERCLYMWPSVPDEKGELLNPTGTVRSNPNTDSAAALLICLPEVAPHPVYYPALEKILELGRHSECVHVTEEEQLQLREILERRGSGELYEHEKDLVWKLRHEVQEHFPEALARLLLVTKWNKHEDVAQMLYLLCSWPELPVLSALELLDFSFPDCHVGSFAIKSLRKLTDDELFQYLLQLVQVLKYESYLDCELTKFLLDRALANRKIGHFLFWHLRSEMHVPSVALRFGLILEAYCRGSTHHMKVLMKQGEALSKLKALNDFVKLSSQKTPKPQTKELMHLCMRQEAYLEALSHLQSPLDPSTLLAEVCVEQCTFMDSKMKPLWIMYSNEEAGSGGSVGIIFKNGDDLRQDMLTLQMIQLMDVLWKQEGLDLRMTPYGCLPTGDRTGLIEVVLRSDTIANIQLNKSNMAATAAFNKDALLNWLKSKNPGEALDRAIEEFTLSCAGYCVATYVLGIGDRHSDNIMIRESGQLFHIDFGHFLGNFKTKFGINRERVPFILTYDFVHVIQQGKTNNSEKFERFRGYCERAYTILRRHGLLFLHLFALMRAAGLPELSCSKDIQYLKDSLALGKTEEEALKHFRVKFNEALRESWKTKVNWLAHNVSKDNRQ
Sequence (P27986 whole entry partner): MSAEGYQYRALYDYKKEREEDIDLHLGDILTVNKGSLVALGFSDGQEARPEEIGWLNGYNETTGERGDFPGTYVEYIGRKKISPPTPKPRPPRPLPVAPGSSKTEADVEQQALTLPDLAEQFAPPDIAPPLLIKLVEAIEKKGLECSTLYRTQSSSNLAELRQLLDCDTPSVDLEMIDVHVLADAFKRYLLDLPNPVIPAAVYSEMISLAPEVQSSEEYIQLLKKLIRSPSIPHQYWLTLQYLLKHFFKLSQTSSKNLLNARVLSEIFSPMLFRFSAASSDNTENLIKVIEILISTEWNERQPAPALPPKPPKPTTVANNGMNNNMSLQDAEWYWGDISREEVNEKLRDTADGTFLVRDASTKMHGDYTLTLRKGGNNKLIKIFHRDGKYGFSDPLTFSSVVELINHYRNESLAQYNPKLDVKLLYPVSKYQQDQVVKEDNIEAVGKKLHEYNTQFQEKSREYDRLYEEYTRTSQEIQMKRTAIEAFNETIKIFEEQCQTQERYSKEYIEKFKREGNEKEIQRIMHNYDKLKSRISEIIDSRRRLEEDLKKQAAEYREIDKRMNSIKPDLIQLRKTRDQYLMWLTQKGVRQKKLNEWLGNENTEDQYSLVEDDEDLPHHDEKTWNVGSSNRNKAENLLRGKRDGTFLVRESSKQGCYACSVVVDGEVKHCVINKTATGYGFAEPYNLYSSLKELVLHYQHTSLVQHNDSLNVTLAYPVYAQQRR
Counter-ions that a name gives are not always drawn.

>  <MOLECULE>
Cc1ccc(S(=O)(=O)NC23CCC(O)(CC2)C3)cc1-c1cnc(N)c(-c2cccnc2)n1 [Example 16, Trifluoroacetate Salt]

>  <OBSERVED>
≤ 100 nM

$$$$
>  <MOLECULE>
O=C(O)C(F)(F)F.[2H]C([2H])([2H])c1ccc(S(=O)(=O)NC23CNC(C2)C3)cc1-c1cnc(N)c(-c2cnc(C3CC3)s2)n1

>  <OBSERVED>
≤ 100 nM

$$$$
>  <MOLECULE>
Cc1ccc(S(=O)(=O)NC23CC(C#N)(C2)C3)cc1-c1cnc(N)c(-n2cncn2)n1 [Example 23, Trifluoroacetate Salt]

>  <OBSERVED>
≤ 100 nM

$$$$
>  <MOLECULE>
[2H]C([2H])([2H])c1ccc(S(=O)(=O)NC23CC(CO)(C2)C3)cc1-c1cnc(N)c(-c2cnco2)n1 [Example 75, trifluoroacetate salt]

>  <OBSERVED>
≤ 500 nM

$$$$

Here is the next item to consider.
Incoming: Provide only the value of recorded IC50 for `[2H]C([2H])([2H])c1ccc(S(=O)(=O)NC23CC(C#N)(C2)C3)cc1-c1cnc(N)c(-c2ccnc(SC)n2)n1`
Outgoing: ≤ 100 nM
